Biological target: MepR (Staphylococcus aureus, UniProt Q5Y812)
Sequence (Q5Y812 1-139): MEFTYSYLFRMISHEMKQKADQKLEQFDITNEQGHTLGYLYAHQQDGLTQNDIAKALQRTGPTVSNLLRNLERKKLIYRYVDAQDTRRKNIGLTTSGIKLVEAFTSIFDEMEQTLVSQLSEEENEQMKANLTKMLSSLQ
Answer each item with its documented pKd.
Lab note: report pKd as minus log10 of the concentration in molar units, number only.

# value of pKd, MepR (Staphylococcus aureus, UniProt Q5Y812), item CC[n+]1c(-c2ccccc2)c2cc(N)ccc2c2ccc(N)cc21 = 5.59

# value of pKd, MepR (Staphylococcus aureus, UniProt Q5Y812), item CC/N=c1\cc2oc3cc(NCC)c(C)cc3c(-c3ccccc3C(=O)OCC)c-2cc1C = 4.20

# value of pKd, MepR (Staphylococcus aureus, UniProt Q5Y812), item N=C(N)c1ccc(-c2cc3ccc(C(=N)N)cc3[nH]2)cc1 = 5.35
